The values you see were collected from ChEMBL document CHEMBL4402561.

This document collects pKi values reported for Carbonic anhydrase 4 (Homo sapiens).
The read-out pKi is expressed as -log10 of concentration in moles per litre.

CC(=O)/C(=C\c1ccc(F)cc1Cl)C(=O)Nc1ccc(S(N)(=O)=O)cc1 | 6.65
NS(=O)(=O)c1ccc(NC(=O)/C(Cl)=N/Nc2ccc(Cl)cc2)cc1 | 6.04
CC(=O)/C(=C\c1cccs1)C(=O)Nc1ccc(S(N)(=O)=O)cc1 | 6.09

Task: # lookup: pKi of CC(=O)CC(=O)Nc1ccc(S(N)(=O)=O)cc1
Output: 6.05

----------
This document collects pKi values reported for Carbonic anhydrase 7 (Homo sapiens).
The read-out pKi is expressed as -log10 of concentration in moles per litre.

Task: # lookup: pKi of CC(=O)CC(=O)Nc1ccc(S(N)(=O)=O)cc1
Output: 6.56

Task: Thanks! And CC(=O)/C(=N\Nc1ccccc1)C(=O)Nc1ccc(S(N)(=O)=O)cc1 ?
Output: 6.19

Task: Thanks! And CC(=O)/C(=C\c1ccc(Cl)cc1)C(=O)Nc1ccc(S(N)(=O)=O)cc1 ?
Output: 8.37
